Biological target: T1, human RXFP1 receptor (human, UniProt Q9HBX9 1-757)
T1 sequence (looked up): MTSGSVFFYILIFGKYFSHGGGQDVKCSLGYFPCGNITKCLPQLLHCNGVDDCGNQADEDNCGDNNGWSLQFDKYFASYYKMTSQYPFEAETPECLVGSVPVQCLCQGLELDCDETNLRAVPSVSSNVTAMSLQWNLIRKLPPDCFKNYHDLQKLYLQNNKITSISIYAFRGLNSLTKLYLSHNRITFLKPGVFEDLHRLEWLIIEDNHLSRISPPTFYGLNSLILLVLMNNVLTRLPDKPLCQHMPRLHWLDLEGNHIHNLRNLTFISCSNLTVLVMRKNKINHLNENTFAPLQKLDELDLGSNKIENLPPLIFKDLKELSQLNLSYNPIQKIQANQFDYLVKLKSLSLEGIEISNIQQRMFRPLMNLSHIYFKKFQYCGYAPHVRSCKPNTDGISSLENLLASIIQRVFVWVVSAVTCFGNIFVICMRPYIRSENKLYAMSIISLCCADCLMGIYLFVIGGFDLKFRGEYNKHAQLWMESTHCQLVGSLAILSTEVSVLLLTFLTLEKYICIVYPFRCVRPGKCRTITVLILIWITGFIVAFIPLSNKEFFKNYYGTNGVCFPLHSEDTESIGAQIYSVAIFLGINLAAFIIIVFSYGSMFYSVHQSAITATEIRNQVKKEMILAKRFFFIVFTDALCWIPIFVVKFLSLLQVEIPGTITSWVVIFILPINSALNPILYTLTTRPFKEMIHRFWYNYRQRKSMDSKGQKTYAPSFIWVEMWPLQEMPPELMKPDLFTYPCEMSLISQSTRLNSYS
Experiment: cell-based or functional assay
Everything with hRXFP1/CHO-K1 cAMP EC50 (nM, avg) lower than 0.4 nM is Condition not met; everything else, including exactly 0.4 nM, is Condition met.

Worked examples follow.
binder="AQ1-KGGEEKKKEKEKEPKGGEEKKKEKEK-Glu^γ-C15-COOH (ligand, not fully specified; Glu^γ bonded by amide to fatty acid -C15-COOH; oxime-linked to pAcF of the A chain; pAcF (para-acetyl-L-phenylalanine) at position 1, oxime-linked to PK enhancer KGGEEKKKEKEKEPKGGEEKKKEKEK-Glu^γ-C15-COOH) chain 1: XLYSALANKCCHVGCTKRSLARFC chain 2: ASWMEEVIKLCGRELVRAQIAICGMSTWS peptide: KGGEEKKKEKEKEPKGGEEKKKEKEKE" label_value="Condition met"
binder="AQ1-Sar-Sar-Sar-Glu-Glu-Glu^γ-C13-COOH (ligand, not fully specified; Sar = sarcosine (N-methylglycine); Glu^γ bonded by amide to fatty acid -C13-COOH; oxime-linked to pAcF of the A chain; pAcF (para-acetyl-L-phenylalanine) at position 1, oxime-linked to PK enhancer Sar-Sar-Sar-Glu-Glu-Glu^γ-C13-COOH) chain 1: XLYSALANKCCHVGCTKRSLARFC chain 2: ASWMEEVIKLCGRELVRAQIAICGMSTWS peptide: XXXEEE" label_value="Condition met"
binder="AQ1-EEEEEE-Glu^γ-C15-COOH (ligand, not fully specified; Glu^γ bonded by amide to fatty acid -C15-COOH; oxime-linked to pAcF of the A chain; pAcF (para-acetyl-L-phenylalanine) at position 1, oxime-linked to PK enhancer EEEEEE-Glu^γ-C15-COOH) chain 1: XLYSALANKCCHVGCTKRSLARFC chain 2: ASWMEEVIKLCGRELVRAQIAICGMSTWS peptide: EEEEEEE" label_value="Condition met"
binder="AQ1-EEEGGG-Glu^γ-C13-COOH (ligand, not fully specified; Glu^γ bonded by amide to fatty acid -C13-COOH; oxime-linked to pAcF of the A chain; pAcF (para-acetyl-L-phenylalanine) at position 1, oxime-linked to PK enhancer EEEGGG-Glu^γ-C13-COOH) chain 1: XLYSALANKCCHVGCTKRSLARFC chain 2: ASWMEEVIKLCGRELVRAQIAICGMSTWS peptide: EEEGGGE" label_value="Condition not met"
binder="AQ1-DRDDRD-C13-COOH (ligand, linked to fatty acid -C13-COOH; oxime-linked to pAcF of the A chain; pAcF (para-acetyl-L-phenylalanine) at position 1, oxime-linked to PK enhancer DRDDRD-C13-COOH) chain 1: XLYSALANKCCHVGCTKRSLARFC chain 2: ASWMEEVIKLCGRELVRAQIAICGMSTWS peptide: DRDDRD" label_value="Condition not met"

Input: hRXFP1/CHO-K1 cAMP EC50 (nM, avg) >= 0.4 nM for AQ1-EESGGSGG-Glu^γ-C13-COOH (ligand, not fully specified; Glu^γ bonded by amide to fatty acid -C13-COOH; oxime-linked to pAcF of the A chain; pAcF (para-acetyl-L-phenylalanine) at position 1, oxime-linked to PK enhancer EESGGSGG-Glu^γ-C13-COOH) chain 1: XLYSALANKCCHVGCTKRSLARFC chain 2: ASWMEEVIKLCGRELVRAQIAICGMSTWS peptide: EESGGSGGE ?
Output: Condition met

Input: hRXFP1/CHO-K1 cAMP EC50 (nM, avg) >= 0.4 nM for AQ1-KKSGGSGG-Glu^γ-C13-COOH (ligand, not fully specified; Glu^γ bonded by amide to fatty acid -C13-COOH; oxime-linked to pAcF of the A chain; pAcF (para-acetyl-L-phenylalanine) at position 1, oxime-linked to PK enhancer KKSGGSGG-Glu^γ-C13-COOH) chain 1: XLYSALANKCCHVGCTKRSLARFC chain 2: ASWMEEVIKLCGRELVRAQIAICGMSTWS peptide: KKSGGSGGE ?
Output: Condition not met

Input: hRXFP1/CHO-K1 cAMP EC50 (nM, avg) >= 0.4 nM for RLX-AQ1 (ligand, pAcF (para-acetyl-L-phenylalanine) at position 1) chain 1: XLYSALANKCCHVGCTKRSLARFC chain 2: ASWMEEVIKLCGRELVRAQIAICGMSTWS ?
Output: Condition not met

Input: hRXFP1/CHO-K1 cAMP EC50 (nM, avg) >= 0.4 nM for AQ1-KKSAGSAG-Glu^γ-C13-COOH (ligand, not fully specified; Glu^γ bonded by amide to fatty acid -C13-COOH; oxime-linked to pAcF of the A chain; pAcF (para-acetyl-L-phenylalanine) at position 1, oxime-linked to PK enhancer KKSAGSAG-Glu^γ-C13-COOH) chain 1: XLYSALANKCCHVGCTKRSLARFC chain 2: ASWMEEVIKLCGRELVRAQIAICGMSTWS peptide: KKSAGSAGE ?
Output: Condition not met

Input: hRXFP1/CHO-K1 cAMP EC50 (nM, avg) >= 0.4 nM for AQ1-Compound 39 (ligand, pAcF (para-acetyl-L-phenylalanine) at position 1, oxime-linked to Compound 39 ((S)-1-(aminooxy)-33-carboxy-4,7,17,27,35-pentaoxo-11,14,21,24-tetraoxa-3,8,18,28,34-pentaazadopentacontan-52-oic acid)) chain 1: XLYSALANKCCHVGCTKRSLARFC chain 2: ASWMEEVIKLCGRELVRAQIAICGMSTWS ?
Output: Condition met
